Entry source: paper PMC5540273

# System: PIP5K1C;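 also: KINOMEscan kinase panel screen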
# measurement setup: concentration: 1 μM, replicates: in singlicate; n = 1
Could you please report measured %Inh for the items listed next?
Response body: numeric value in %, unit text excluded.

Exercise: Determine from records and report %Inh for O=C(c1ccc(-c2cc(-c3c[nH]nc3-c3ccccn3)ccn2)cc1)N1CCCC1
Key: 14

Exercise: Input O=c1cc(N2CCOCC2)nc2n(Cc3cccc(Cl)c3)ccn12 , output reported %Inh.
Key: 8

Exercise: Consider the compound Nc1nccc2scc(-c3ccc4c(c3)CCN4C(=O)Cc3cc(F)ccc3F)c12 . State its measured %Inh.
Key: 49

Exercise: Please list %Inh recorded for the compound COc1ccc(Nc2nccc(N3CCC(NC(=O)Nc4ccc5c(c4)OCO5)C3)n2)cc1 (stereo not shown)
Key: 51

Exercise: Return %Inh (reported value) for this compound: Cl.Cl.c1ccc(-c2cc3ccncc3cc2OC2CCNCC2)cc1
Key: 25

Exercise: Quick one: give measured %Inh for Fc1ccc(Nc2nccc(-c3c(-c4ccc(Cl)cc4)nn4ncccc34)n2)cc1F
Key: 54

Exercise: Note %Inh for the compound shown: C[C@@H]1CCN(C(=O)CO)C[C@@H]1N(C)c1ncnc2[nH]ccc12
Key: 0

Exercise: Could you please provide reported %Inh for Nc1nc(-c2cccnc2)c(-c2ccnc3ccccc23)s1 ? Thanks!
Key: 58

Exercise: Please supply the value of reported %Inh for the item Clc1cccc(-c2nc(Nc3ccncc3)c3ccccc3n2)c1
Key: 33

Exercise: Tell me its %Inh given C[C@H]1CC[C@@H](C(=O)Nc2ccccc2)CN1c1cc(-c2ccc3c(N)n[nH]c3c2)nc(N)n1 as the entry.
Key: 19
